Taken from PubChem BioAssay AID608.

target: Peptidyl-prolyl cis-trans isomerase FKBP1A (Homo sapiens) (UniProt P62942); test: small-molecule binding to FKBP12 – biophysical, NMR detection (AID 608); conditions: purified FKBP12
Sequence (P62942 whole entry, looked up): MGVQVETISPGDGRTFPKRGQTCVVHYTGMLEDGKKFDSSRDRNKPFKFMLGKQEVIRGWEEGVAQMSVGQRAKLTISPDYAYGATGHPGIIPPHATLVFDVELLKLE
Active and inactive are the calls of the source. The rule behind the calls is not given here.
Please answer using one outcome listed in active, inactive

# count of solved cases: 3
>  <Molecule>
Cc1cc(-c2ccccc2)nc2cc(C(N)=O)nn12

>  <Discrete label>
inactive

$$$$
>  <Molecule>
CS(=O)(=O)N1CCN(c2ccccc2F)CC1

>  <Discrete label>
inactive

$$$$
>  <Molecule>
CCCCCc1c2c(cc(O)c1C(=O)O)OC(=O)c1c(cc(OC)cc1C(=O)CCCC)O2

>  <Discrete label>
inactive

$$$$

Short answer needed: outcome of this test for COc1ccc2nc(NC(=O)c3cnccn3)sc2c1 ? inactive

Short answer needed: outcome of this test for COc1cc2c(cc1OC)[C@@H]1C(=O)c3ccc4c(c3O[C@@H]1CO2)C=CC(C)(C)O4 ? inactive

Short answer needed: outcome of this test for COc1c(-c2ccccc2)oc2c(OC)cccc2c1=O ? inactive

----------
target: Peptidyl-prolyl cis-trans isomerase FKBP1A (Homo sapiens) (UniProt P62942); test: small-molecule binding to FKBP12 – biophysical, NMR detection (AID 608); settings: purified FKBP12
Active and inactive are the calls of the source. The rule behind the calls is not given here.
Please answer using one outcome listed in Y (active), N (inactive)

# count of solved cases: 2
>  <Compound>
Cc1cc(C)n(/N=C\c2cccs2)c(=O)c1C(N)=O

>  <Discrete label>
N

$$$$
>  <Compound>
OCCNC(=S)Nc1ccccc1

>  <Discrete label>
N

$$$$

Short answer needed: outcome of this test for O=C(CO)N/N=C/c1ccccc1F ? N

----------
molecular target: Peptidyl-prolyl cis-trans isomerase FKBP1A (Homo sapiens) (UniProt P62942); test: small-molecule binding to FKBP12 – biophysical, NMR detection (AID 608); details: purified FKBP12
Calls of active or inactive are those of the source. The rule behind the calls is not given here.
Reported Kd values for a set of compounds

>  <Compound>
CCN=Cc1c(O)n(-c2ccccc2C)c(=O)[nH]c1=O

>  <Reported value>
> 4 mM (inactive)

$$$$

GET Kd | system: Peptidyl-prolyl cis-trans isomerase FKBP1A (Homo sapiens) (UniProt P62942) | item: Cc1csc2nc(N)nn12 > 4 mM (inactive)

GET Kd | system: Peptidyl-prolyl cis-trans isomerase FKBP1A (Homo sapiens) (UniProt P62942) | item: CC(=O)NC(=S)Nc1ccc(S(N)(=O)=O)cc1 > 4 mM (inactive)

GET Kd | system: Peptidyl-prolyl cis-trans isomerase FKBP1A (Homo sapiens) (UniProt P62942) | item: COCc1cc(=O)oc2cc(N)ccc12 > 4 mM (inactive)

GET Kd | system: Peptidyl-prolyl cis-trans isomerase FKBP1A (Homo sapiens) (UniProt P62942) | item: O=C(c1ccco1)N1CCn2c1nc1ccccc12 > 4 mM (inactive)

GET Kd | system: Peptidyl-prolyl cis-trans isomerase FKBP1A (Homo sapiens) (UniProt P62942) | item: CNC(=S)Nc1ccc2c(c1)OCO2 > 4 mM (inactive)

GET Kd | system: Peptidyl-prolyl cis-trans isomerase FKBP1A (Homo sapiens) (UniProt P62942) | item: O=C1CCCC2C3CC(CN12)[C@@H]1CCCCN1C3 (some centres undefined) > 4 mM (inactive)

GET Kd | system: Peptidyl-prolyl cis-trans isomerase FKBP1A (Homo sapiens) (UniProt P62942) | item: CSc1ccccc1NC(=O)c1cnccn1 > 4 mM (inactive)

GET Kd | system: Peptidyl-prolyl cis-trans isomerase FKBP1A (Homo sapiens) (UniProt P62942) | item: O=c1nc(N2CCCCC2)nc2n1CCO2 > 4 mM (inactive)

GET Kd | system: Peptidyl-prolyl cis-trans isomerase FKBP1A (Homo sapiens) (UniProt P62942) | item: Cc1cc(C)nc(/N=C(\N)N2CCc3ccccc32)n1 > 4 mM (inactive)

GET Kd | system: Peptidyl-prolyl cis-trans isomerase FKBP1A (Homo sapiens) (UniProt P62942) | item: C[n+]1cccc(C(=O)[O-])c1 > 4 mM (inactive)

GET Kd | system: Peptidyl-prolyl cis-trans isomerase FKBP1A (Homo sapiens) (UniProt P62942) | item: CCOC(=O)c1cc(C)n(C)n1 > 4 mM (inactive)

GET Kd | system: Peptidyl-prolyl cis-trans isomerase FKBP1A (Homo sapiens) (UniProt P62942) | item: CC(=O)NC(O)C(=O)c1ccccc1 (centres undefined) > 4 mM (inactive)

GET Kd | system: Peptidyl-prolyl cis-trans isomerase FKBP1A (Homo sapiens) (UniProt P62942) | item: O=C1NC(=O)C(C2SC(=O)NC2=O)S1 (centres undefined) > 4 mM (inactive)
